# ASSAY TARGET: T1, MHC class I molecule A*0101 (biotin (bound to streptavidin-coated plate))
# T1 construct: iTopia monomer stripped of placeholder peptide and b2M, then reconstituted with test peptide and fresh b2M; also called A1; HLA-A1
# PROTOCOL: iTopia peptide binding assay
Listed binders paired with reported binding, % of positive control peptide

BINDER	binding, % of positive control peptide
NIRDACRDH [5T4 9-mer peptide 194 (NIRDACRDH)]	0 % of positive control
LHLEDNALK [5T4 9-mer peptide 132 (LHLEDNALK)]	4 % of positive control
EGYHYRYEI [5T4 9-mer peptide 199 (EGYHYRYEI)]	0 % of positive control
RDHMEGYHY [5T4 9-mer peptide 197 (RDHMEGYHY)]	11 % of positive control
LKETEVVQG [5T4 9-mer peptide 155 (LKETEVVQG)]	0 % of positive control
AELQGLPHI [5T4 9-mer peptide 140 (AELQGLPHI)]	0 % of positive control
NNPWVCDCH [5T4 9-mer peptide 147 (NNPWVCDCH)]	0 % of positive control
HLESLHLED [5T4 9-mer peptide 130 (HLESLHLED)]	4 % of positive control
